# TARGET_DESC: UniProt:P00742
# Sequence (P00742 235-488 limits assumed): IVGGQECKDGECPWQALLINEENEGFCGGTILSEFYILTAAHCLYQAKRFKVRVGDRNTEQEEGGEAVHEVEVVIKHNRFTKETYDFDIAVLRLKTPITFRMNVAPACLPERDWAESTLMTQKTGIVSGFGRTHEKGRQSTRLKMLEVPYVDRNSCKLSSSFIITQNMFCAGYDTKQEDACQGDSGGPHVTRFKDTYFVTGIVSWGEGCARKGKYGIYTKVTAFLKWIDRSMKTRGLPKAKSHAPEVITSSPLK
# Sequence (P00742 41-179 partner limits assumed): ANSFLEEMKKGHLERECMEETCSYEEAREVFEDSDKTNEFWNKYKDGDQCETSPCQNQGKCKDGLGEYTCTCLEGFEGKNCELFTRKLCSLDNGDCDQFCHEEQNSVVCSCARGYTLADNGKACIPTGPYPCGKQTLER
pIC50: −log10 of the molar value.
QUANTITY_NAME: pIC50

Q: What value of pIC50 has been recorded for this entry: COCc1nn(Cc2ccc(Cn3ccccc3=O)cc2)cc1C(=O)NCc1nccc(OC)c1F [Compound 14w]
Result: < 5.00

----------
# TEST_DETAILS: Measured pKa, PION UV-metric method
# Format: physicochemical
QUANTITY_NAME: pKa
I only need the number, thanks.

Q: What value of pKa has been recorded for this entry: COCc1nn(Cc2ccc(Cn3ccccc3=O)cc2)cc1C(=O)NCc1nccc(OC)c1F [Compound 14w]
Result: 3.6

----------
# TEST_DETAILS: Rat pharmacokinetics
# Format: in vivo, Sprague-Dawley rats
# TEST_CONDITIONS: male, Sprague-Dawley, plasma, iv, 1 mg/kg
QUANTITY_NAME: clearance at 24 h (mL/min/kg)
Give your result in mL/min/kg as a bare value.

Q: What value of clearance at 24 h has been recorded for this entry: COCc1nn(Cc2ccc(Cn3ccccc3=O)cc2)cc1C(=O)NCc1nccc(OC)c1F [Compound 14w]
Result: 11.7

Q: Again, but for `COc1ccnc(CNC(=O)c2cn(Cc3ccc(Cn4ccccc4=O)cc3)nc2C(F)(F)F)c1F`
Result: 7.1

Q: Again, but for COCc1nn(Cc2ccc(Cn3ccccc3=O)cc2)cc1C(=O)NCc1nccc(OC)c1C [Compound 14s]
Result: 14

Q: Again, but for COCc1nn(Cc2ccc(Cn3ccccc3=O)cc2)cc1C(=O)NCc1c(F)ccc(OC)c1F [Compound 13b]
Result: 12.8

Q: Again, but for COCc1nn(Cc2ccc(Cn3ccccc3=O)cc2)cc1C(=O)NCc1c(C#N)ccc(OC)c1F [Compound 13k]
Result: 16

----------
# TEST_DETAILS: Thermodynamic solubility in FaSSIF / FaSSGF
# Format: physicochemical
# TEST_CONDITIONS: pH 6.5, solubility FaSSIF, theoretical concentration 1 mg/mL
QUANTITY_NAME: solubility at 4 h

Q: What value of solubility at 4 h has been recorded for this entry: COCc1nn(Cc2ccc(Cn3ccccc3=O)cc2)cc1C(=O)NCc1nccc(OC)c1C [Compound 14s]
Result: > 100 µg/mL

----------
What follows is a collection of IC50 values obtained with UniProtKB P06870.
Sequence (P06870 25-262): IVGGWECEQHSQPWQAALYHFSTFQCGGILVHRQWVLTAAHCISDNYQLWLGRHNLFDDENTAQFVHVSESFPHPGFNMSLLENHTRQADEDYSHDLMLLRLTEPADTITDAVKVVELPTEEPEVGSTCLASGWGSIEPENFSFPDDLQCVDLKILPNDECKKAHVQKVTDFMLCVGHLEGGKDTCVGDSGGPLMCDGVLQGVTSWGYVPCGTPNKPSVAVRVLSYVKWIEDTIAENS

Q: Provide value of IC50 for this record tested with UniProtKB P06870: COCc1nn(Cc2ccc(Cn3ccccc3=O)cc2)cc1C(=O)NCc1nccc(OC)c1C [Compound 14s]
Result: > 10 µM

Q: Again, but for `COc1ccnc(CNC(=O)c2cn(Cc3ccc(Cn4ccccc4=O)cc3)nc2C(F)(F)F)c1F`
Result: > 10 µM

----------
# TEST_DETAILS: Dog pharmacokinetics
# Format: in vivo, beagle dogs
# TEST_CONDITIONS: male, beagle, plasma, iv, 1 mg/kg
Can you tell me clearance at 24 h for the items I'm about to list?
Give your result in mL/min/kg as a bare value.

Q: What value of clearance at 24 h has been recorded for this entry: COCc1nn(Cc2ccc(Cn3ccccc3=O)cc2)cc1C(=O)NCc1c(F)ccc(OC)c1F [Compound 13b]
Result: 11.5

Q: Again, but for COc1ccnc(CNC(=O)c2cn(Cc3ccc(Cn4ccccc4=O)cc3)nc2C(F)(F)F)c1F [Compound 16]
Result: 10

Q: Again, but for COCc1nn(Cc2ccc(Cn3ccccc3=O)cc2)cc1C(=O)NCc1nccc(OC)c1F [Compound 14w]
Result: 8.7
